- Protocol: gradient 5% acetonitrile 3 min, to 50% in 2 min, to 85% in 15 min, held 3 min, 100 µL/min
- Condition Notes: column: Zorbax Extend-C18 2.1 x 50 mm; eluents: water / acetonitrile, 0.1% formic acid
Classify: yes (1) when RP-LC retention time is strictly less than 800 s; no (0) when RP-LC retention time is not.

- Cc1ccc(-c2noc(Cn3ccn(Cc4ccc(Cl)cc4)c(=O)c3=O)n2)cc1: no (0)
- Cc1ccc(NC(=O)N2CCCC2c2nc(-c3cccc(C)c3)no2)cc1 (stereo unspecified): no (0)
- Cc1cc2[nH]c(C(=O)Nc3ccccc3Br)c(CN(C)C)c2s1: yes (1)
- CN(C)CCn1nnc2cc(-c3noc(-c4ccccc4Br)n3)ccc21: yes (1)
- COc1ccc(OC)c(S(=O)(=O)N2CCCC3(CC2)CNC(=O)O3)c1 (stereo unspecified): yes (1)
- C=CCN1C(=O)C(C)(C)COc2ccc(NC(=O)Oc3ccccc3)cc21: no (0)
- CCC(=O)NCc1nc2c(n1C)CN(S(=O)(=O)c1ccc(F)c(C)c1)CC2: yes (1)
- Cn1c(CC2CCN(S(=O)(=O)Cc3ccc(F)cc3Cl)C2)nc2cccnc21 (stereo unspecified): yes (1)
- COc1ccc(C2C(C(=O)N3CCCC(C)C3)CCC(=O)N2c2cc(OC)c(OC)c(OC)c2)cc1 (stereo unspecified): yes (1)
- CCCN(C)c1nccnc1OC1CCN(C(=O)C2CCC2)C1 (stereo unspecified): yes (1)

* * *

- Protocol: gradient 5% acetonitrile 3 min, to 50% in 2 min, to 85% in 15 min, held 3 min, 100 µL/min
- Condition Notes: column: Zorbax Extend-C18 2.1 x 50 mm; eluents: water / acetonitrile, 0.1% formic acid
The compounds listed here are annotated with their RP-LC retention time.
Attribute Measured: RP-LC retention time (s)

* O=C(NCCCn1cccc1)c1ccno1 | 644
* CC1CN(C(=O)Cn2cc(SCC(=O)NC3CCCCC3)c3ccccc32)CC(C)O1 (stereo not drawn) | 879
* COc1ccc(-c2cccc(NC(C)=O)c2)nn1 | 645

* * *

- Protocol: gradient 5% acetonitrile 3 min, to 50% in 2 min, to 85% in 15 min, held 3 min, 100 µL/min
- Condition Notes: column: Zorbax Extend-C18 2.1 x 50 mm; eluents: water / acetonitrile, 0.1% formic acid
Attribute Measured: RP-LC retention time

• CNC(=O)c1cc(C)nc2ccc(C)cc12 = 561 s
• COc1ccc(-c2nc3ncccn3c2Nc2c(C)cccc2C)cc1 = 765 s
• Cc1nnc2ccc(S(=O)(=O)N(Cc3ccccc3)c3cc(F)cc(F)c3)cn12 = 899 s
• COc1ccc(NC(=O)Cn2c(N)nc(C)c(C)c2=O)cc1 = 595 s
• Cc1nn(CC(=O)NC2CCCCCC2)c(=O)c2c(C)n(-c3ccccc3)nc12 = 807 s
• Cc1cc2c(c(=O)n(-c3ccc(F)cc3)c(=O)n2CC(=O)Nc2ccccc2F)n1C = 837 s
• COc1cccc(OC)c1C(=O)Nc1nc2c(s1)CCc1ccccc1-2 = 1000 s
• CCN(CC)S(=O)(=O)c1ccc(NC(=O)N2CCCC(C(=O)Nc3ccc(OC)cc3)C2)s1 (stereo not given) = 884 s
• COc1ccc(CN2CCCN(c3cc(-c4ccccc4)[nH]n3)CC2)c(O)c1 = 620 s
• COc1cccc(N2C=C(C(=O)N3CCCC3)S(=O)(=O)c3ccc(F)cc32)c1 = 819 s

* * *

- Protocol: gradient 5% acetonitrile 3 min, to 50% in 2 min, to 85% in 15 min, held 3 min, 100 µL/min
- Condition Notes: column: Zorbax Extend-C18 2.1 x 50 mm; eluents: water / acetonitrile, 0.1% formic acid
Threshold check on RP-LC retention time: strictly below 800 s is satisfied; on or above 800 s is not satisfied.

- O=C(Nc1ccc(F)c(Cl)c1)Nc1nccn(-c2ccc(F)cc2)c1=O: not satisfied
- COC(=O)c1cnc2nc(C)ccc2c1Nc1ccc(F)c(Cl)c1: satisfied
- CCNC(=O)C1CCCN(c2nc3ncn(CC(=O)Nc4ccc(CC)cc4)c(=O)c3s2)C1 (stereo not given): satisfied
- COc1cccc(N2C(=O)C3N=NN(Cc4nc(-c5ccc(C)cc5)no4)C3C2=O)c1 (stereo not given): not satisfied

* * *

compounds and their reported RP-LC retention time
- Protocol: gradient 5% acetonitrile 3 min, to 50% in 2 min, to 85% in 15 min, held 3 min, 100 µL/min
- Condition Notes: column: Zorbax Extend-C18 2.1 x 50 mm; eluents: water / acetonitrile, 0.1% formic acid
Attribute Measured: RP-LC retention time

• Cc1noc(C)c1CCNC(=O)c1cc(-c2cccnc2)nc2ccccc12 = 652 s
• Cc1noc(-c2ccnc(-n3cnc(C(=O)NCC(C)C)c3)c2)n1 = 773 s
• CCOC(=O)c1c(S(=O)(=O)N2CCC(C(=O)NCc3cccs3)CC2)c(C)n(C)c1C = 774 s
• Cc1cc(S(=O)(=O)N2CCN(C3CCN(Cc4ccccn4)C3=O)CC2)ccc1Cl (centres undefined) = 622 s

* * *

- Protocol: gradient 5% acetonitrile 3 min, to 50% in 2 min, to 85% in 15 min, held 3 min, 100 µL/min
- Condition Notes: column: Zorbax Extend-C18 2.1 x 50 mm; eluents: water / acetonitrile, 0.1% formic acid
Attribute Measured: RP-LC retention time (s)

* COc1ccc(N2CC(c3noc(-c4ccccc4F)n3)CC2=O)cc1OC (configuration not stated) | 818
* CCCCNC(=O)Cn1c(=O)cc(-c2nc(C3CC3)no2)c2ccccc21 | 874
* Cn1cc2c(n1)c(=O)n(Cc1ccc(Cl)cc1)c1nn(Cc3ccccc3)c(=O)n21 | 960
* O=C(C1CC1)N1CCc2sc(S(=O)(=O)Nc3cccc(Cl)c3F)cc2C1 | 870
* O=C(NC1CC1)C1CCN(c2ccc(=O)n(-c3ccc(F)cc3)n2)CC1 | 671
* CN(Cc1ccccc1)Cc1nc(-c2ccc(N3CCSCC3)nc2)no1 | 837
* Cc1ccnc(N2CCC(C(=O)NCCCN3CCCCC3)CC2)n1 | 559
* Cc1nc2cccnc2n1C1CCN(C(=O)Nc2ccccc2Cl)CC1 | 635
* CCc1ccc(NC(=O)N2CCN(c3cnn4c(C)nnc4c3)CC2)cc1 | 649
* Cc1nn(-c2ccc(-c3noc(C4CC4)n3)cc2)cc1C(=O)Nc1ccc(F)cc1F | 773
* COc1ccccc1C(=O)N1CCCC1COc1ccc(C(=O)NC2CC2)cc1 (configuration not stated) | 759
* Cc1ccc2nc(-c3ccc(NS(=O)(=O)c4cn(C)c(=O)n(C)c4=O)cc3)sc2c1 | 870

* * *

Here the recorded RP-LC retention time is given for each entry.
- Protocol: gradient 5% acetonitrile 3 min, to 50% in 2 min, to 85% in 15 min, held 3 min, 100 µL/min
- Condition Notes: column: Zorbax Extend-C18 2.1 x 50 mm; eluents: water / acetonitrile, 0.1% formic acid
Attribute Measured: RP-LC retention time (s)

* C#CCOc1ccc2c(c1)c(-c1ccc(C(C)C)cc1)nc(=O)n2C(C)C | 1160
* COc1ccc(N2CCN(c3ncccc3-c3nc(-c4ccccc4)no3)CC2)cc1 | 1290
* COc1cccc(NC(=O)N2CCCC2c2nc(-c3cccc(OC)c3)no2)c1 (stereo unspecified) | 947
* O=C(NCc1ccccn1)C1CCN(c2nc3ccc(-c4cncnc4)nc3s2)CC1 | 599
* COc1ccc2[nH]cc(CCN3CC(C(=O)Nc4ccc(Br)cc4)CC3=O)c2c1 (stereo unspecified) | 844
* CN(CC(=O)O)S(=O)(=O)c1ccc(Cl)c(-c2nnc(-c3ccccc3)o2)c1 | 819
* CCCNC(=O)Cc1cn2cc(Br)ccc2n1 | 570
* CC(NC(=O)c1ccc2c(c1)nc1n2CCN(Cc2ccccc2)C1=O)c1ccccn1 (stereo unspecified) | 622
* CCNC(=O)c1nc(C(=O)NC(C)c2ccc(C)cc2)cs1 (stereo unspecified) | 843
* Cc1cc(-c2nnc(-c3ccco3)o2)c(C)n1CC(=O)NCc1ccc(F)cc1 | 849
* CCC(=O)N1c2ccc(S(=O)(=O)N3CCCCC3)cc2CC1C(=O)NCc1ccc(N(C)C)cc1 (stereo unspecified) | 691
* O=S(=O)(NC1CCCCC1)c1ccc(-c2cc(C(F)(F)F)on2)o1 | 1120
* Cc1ccc(-c2cc(C(=O)N3CCOCC3)nn2C2CCS(=O)(=O)C2)cc1C (stereo unspecified) | 780
* Cc1ccc(NC(=O)c2nc3nc(C)cc(C(F)F)n3n2)c(C)c1 | 854
* O=C(Cn1nc2c3sc(N4CCCCC4)nc3ncn2c1=O)Nc1ccc(F)c(Cl)c1 | 869
* CCN1C(=O)c2cccnc2Sc2cc(CNC(=O)Cc3ccc(OC)cc3)ccc21 | 742
* CCOCCCNC(=O)c1cc2n(n1)CCCN(Cc1cccc(C)c1)C2=O | 780
* COCCN1CCn2cc(S(=O)(=O)Nc3ccc(C)c(C)c3)cc2C1=O | 745
* CS(=O)(=O)N1CCn2nc(-c3cccs3)cc21 | 681
* COC1CCN(C(=O)NC(C)C)CC1 | 599
* CN1C(=O)c2[nH]nc(-c3ccc(F)cc3)c2C1c1cccc(O)c1 (stereo unspecified) | 687
* CCCn1c(C)cnc1CC1CCN(S(=O)(=O)c2ccc3c(c2)CCC3)C1 (stereo unspecified) | 730
* O=C(Nc1cccc(Cl)c1)Nn1cnnc1 | 691
* Cc1cc(F)ccc1NC(=O)C1CCN(c2cnc3ccccc3n2)CC1 | 780
* O=C(Nc1ccccc1Cl)N1CCC(N2CCN(Cc3cccc(F)c3)C(=O)C2=O)CC1 | 749
* COc1ccc(NC(=O)N2CCN(c3nc4ccncc4n(CC(C)C)c3=O)CC2)cc1 | 587
* CC(C)CCNC(=O)C1(C)Cn2nc(C(=O)NCc3ccccc3Br)cc2C(=O)N1C (stereo unspecified) | 838
* CNC(=O)C1CCN(C(=O)Nc2ccc(NC(=O)Nc3ccc(C)cc3)cc2)CC1 | 658
* COc1ccc(NC(=O)Cn2c(C(C)C)nc3c(c2=O)CN(Cc2ccccc2)CC3)cc1 | 685
* CN(CCCNC(=O)c1sc2ncccc2c1-n1cccc1)Cc1ccccc1 | 662
* CCN(CC)C(=O)c1ccc2c(c1)nnn2CCNC(=O)Nc1cc(F)ccc1F | 714
